- target-desc: Kappa-type opioid receptor (Homo sapiens, UniProt P41145)
- Sequence (P41145 whole entry): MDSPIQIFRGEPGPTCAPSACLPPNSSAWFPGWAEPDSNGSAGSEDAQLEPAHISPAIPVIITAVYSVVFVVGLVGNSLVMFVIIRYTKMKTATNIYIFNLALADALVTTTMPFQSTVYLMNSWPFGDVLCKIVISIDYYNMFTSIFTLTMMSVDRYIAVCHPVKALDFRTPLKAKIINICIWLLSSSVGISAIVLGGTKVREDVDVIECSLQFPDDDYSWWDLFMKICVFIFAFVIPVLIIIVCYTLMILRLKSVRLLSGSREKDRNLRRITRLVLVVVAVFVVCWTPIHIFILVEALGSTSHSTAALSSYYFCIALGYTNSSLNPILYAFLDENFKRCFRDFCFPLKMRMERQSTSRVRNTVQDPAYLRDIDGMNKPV
- protocol-details: Antagonist at KOR expressed in human U2OS cells measured by High content imaging based beta-arrestin translocation assay
For each record, write down the corresponding pIC50.
pIC50 here: minus log base 10 of the concentration, concentration in moles per litre.

*Q* Which pIC50 reading was recorded for the compound COc1ccc(N2CCN(CCCNC(=O)Cn3c(=O)c4cccn4c4cccnc43)CC2)cc1 ?
*A* 6.76

*Q* Which pIC50 reading was recorded for the compound COc1ccc(N2CCN(CCCNC(=O)CN3C(=O)C4CCCN4c4c(C)ccnc43)CC2)cc1 (configuration not stated) ?
*A* 5.55

====

For each record, write down the corresponding Ki.
- target-desc: Glutamate receptor ionotropic AMPA (Homo sapiens, UniProt P42261+P42262+P42263+P48058)
- protocol-details: Displacement of [3H]AMPA from AMPA receptor (unknown origin)
- Type: protein-complex assay
Give just the numeric value; nM need not be written.

*Q* Which Ki reading was recorded for the molecule O=C(O)c1nc2c(=O)[nH]c3cc(Cl)c(Cl)cc3n2n1 ?
*A* 1300

*Q* Which Ki reading was recorded for the molecule O=C(O)c1nc2c(O)nc3cc(Cl)c(-n4cccc4)cc3n2n1 ?
*A* 860

*Q* Which Ki reading was recorded for the molecule O=c1[nH]c2cc([N+](=O)[O-])c(-n3ccnc3)nc2n2ccnc12 ?
*A* 57

*Q* Which Ki reading was recorded for the molecule O=c1[nH]c2cc(C(F)(F)F)c(-n3ccnc3)nc2n2ccnc12 ?
*A* 66

*Q* Which Ki reading was recorded for the molecule O=C(O)c1nc2c(=O)[nH]c3cc(Cl)c(-n4cnnc4)cc3n2n1 [TQX-173] ?
*A* 140

*Q* Which Ki reading was recorded for the molecule O=C(O)Cn1c(=O)c(=O)[nH]c2cc(Cl)c(Cl)cc21 ?
*A* 2100

*Q* Which Ki reading was recorded for the molecule O=C(O)c1ccn(-c2cc3c(cc2[N+](=O)[O-])nc(O)c2nc(C(=O)O)nn23)c1 ?
*A* 19

*Q* Which Ki reading was recorded for the molecule O=c1[nH]c2cc(-n3ccnc3)c([N+](=O)[O-])cc2[nH]c1=O [YM-90K] ?
*A* 84

*Q* Which Ki reading was recorded for the molecule Cc1cc2[nH]c(=O)c(=O)n(CC(=O)O)c2cc1C ?
*A* 700

*Q* Which Ki reading was recorded for the molecule O=[N+]([O-])c1cc2nc(O)c(O)nc2nc1-n1ccnc1 ?
*A* 140

*Q* Which Ki reading was recorded for the molecule O=Cc1ccn(-c2cc3c(cc2Cl)nc(O)c2nc(C(=O)O)nn23)c1 ?
*A* 530

*Q* Which Ki reading was recorded for the molecule CCc1cnc2c(=O)[nH]c3cc([N+](=O)[O-])c(-n4ccnc4)nc3n12 ?
*A* 20

*Q* Which Ki reading was recorded for the molecule O=C(O)c1cc2c3cc(Cl)c(Cl)cc3[nH]c(=O)n2n1 ?
*A* 2400

====

- target-desc: Glutamate [NMDA] receptor
- protocol-details: Displacement of [3H]kainic acid from NMDA receptor (unknown origin)
- Format: protein-complex assay, Homo sapiens
For each record, write down the corresponding IC50.

*Q* Which IC50 reading was recorded for the compound O=C(CC1CCc2cc(Br)cc3[nH]c(=O)c(=O)n1c23)Nc1ccccc1 (configuration not stated) ?
*A* > 25 µM

*Q* Which IC50 reading was recorded for the compound O=C(O)CC1CCc2cc(Br)cc3[nH]c(=O)c(=O)n1c23 (configuration not stated) ?
*A* > 30 µM
